# Test system: IGROV1 ovarian
# assay.name: NCI-60 one-dose screen, 48 h
# particulars: 10 µM
This is part of a sample that, as a whole, favours compounds with a hit. Of some 83,000 tested, about 20% had one in any assay. Active and inactive are the calls of the source. How the source made its calls: active means growth percent below 10; inactive means the rest.
Lab note: assign the record to one of 1 = active, 0 = inactive

Past entries and their recorded results:
- molecule: "COc1cc([N+](=O)[O-])c2ncccc2c1[N+](=O)[O-]"
  group: 0
- molecule: "O=[P+](O)c1ccccc1"
  group: 0
- molecule: "C[C@]12CC[C@H]3[C@@H](CCC4=CC(=O)CC[C@@H]43)[C@@H]1CC[C@@H]2OC(=O)N(CCCl)N=O"
  group: 1

Moving on to the next molecule.
Just curious, what result did COc1cc([C@@H]2c3cc4c(c(O)c3C[C@H]3COC(=O)[C@@H]32)OCO4)cc(OC)c1OC get here?
1

###

# System: HL-60(TB) leukemia
# assay.name: NCI-60 one-dose screen, 48 h (100 = growth as untreated, 0 = no growth, -100 = all killed)
# particulars: 10 µM
The panel holds about 83,000 compounds, 20% with a hit somewhere; the sample as a whole holds those more often.
recorded.endpoint: growth (%)
Write the answer as a number in %, unit excluded.

- compound: "COC(=O)C1C(O)C(C)C(O)C(C)/C=C\\C=C(C)C(=O)Nc2c(C)c(OC(C)=O)c3c(c2O)C(=O)C(C)=C2OCOC(=C23)C(C)=CC(C)(O)C(O)C(C)C1O (stereo not drawn)"
  units.of.measure: "%"
  reported: 72.3

Please look at this compound and report its growth: N#CCc1ccccc1
105

Please look at this compound and report its growth: CC12OOC(c3ccccc31)c1c2ccc2ccccc12 (stereo not drawn)
-63.5

Please look at this compound and report its growth: COS(=O)(=O)c1ccccc1
106

Please look at this compound and report its growth: O=[N+]([O-])c1ccc(N2CCOCC2)c2c1no[n+]2[O-]
-16.7

Please look at this compound and report its growth: [Cl][Hg][c]1ccc2ccccc2c1
-20.3

###

# System: SK-MEL-28 melanoma
# assay.name: NCI-60 one-dose screen, 48 h
# particulars: 10 µM
This is part of a sample that, as a whole, favours compounds with a hit. Of some 83,000 tested, about 20% had one in any assay. Activity calls are given as the source filed them. The calls were made as follows: active = growth percent below 10; inactive = the rest.
Lab note: assign the record to one of active, inactive

Past entries and their recorded results:
- compound: "O=S(=O)(F)c1ccc(Cl)cc1"
  group: "inactive"
- compound: "COS(=O)(=O)c1ccccc1"
  group: "inactive"
- compound: "Cc1ccc(NC(=O)CBr)cc1"
  group: "inactive"
- compound: "O=C1C=Cc2ccccc2C1=O"
  group: "inactive"
- compound: "COc1ccc(/C=C\\[N+](=O)[O-])cc1OC"
  group: "inactive"

Just curious, what result did COc1cc(/C=C/[N+](=O)[O-])cc(OC)c1OC get here?
active

Just curious, what result did [Cl][Hg][c]1ccc(Cl)s1 get here?
active

Just curious, what result did NNc1ccccc1 get here?
inactive

Just curious, what result did Cc1cc(C)c(C[N+](C)(C)C)c(C)c1C get here?
active

Just curious, what result did O=C1C(=O)c2ccccc2-c2ccccc21 get here?
active

Just curious, what result did O=C(CCl)Nc1ccc(Cl)cc1 get here?
inactive

Just curious, what result did CC(C)c1cc([N+](=O)[O-])cc([N+](=O)[O-])c1O get here?
inactive

Just curious, what result did C#CC1(O)CCC(C(C)(C)C)CC1 (configuration not stated) get here?
inactive

Just curious, what result did CC(C)(C)OOC(=O)/C=C\C(=O)OOC(C)(C)C get here?
inactive

Just curious, what result did C[CH2][Hg][S]c1ccccc1C(=O)O get here?
active

Just curious, what result did COC12c3c(C)cc(O)c4c(=O)occ(c34)C(=O)C1C13COC(=O)c4c(O)cc(C)c(c41)C(=O)C2C3OC(C)=O (configuration not stated) get here?
inactive

Just curious, what result did C[C@@H]1C[C@@H]([C@H](O)CC2CC(=O)NC(=O)C2)C(=O)[C@@H](C)C1 get here?
active

Just curious, what result did COc1cc(/C=C/[N+](=O)[O-])cc(Br)c1OC get here?
active

Just curious, what result did Oc1c(Cl)cc(Cl)c2ccccc12.[Cu+2] get here?
inactive

Just curious, what result did Oc1c(I)cc(I)cc1I get here?
inactive

Just curious, what result did O=[N+]([O-])/C=C/c1ccc(Cl)cc1[N+](=O)[O-] get here?
inactive

Just curious, what result did [O-][n+]1ccccc1S get here?
inactive

###

# Test system: OVCAR-4 ovarian
# assay.name: NCI-60 one-dose screen, 48 h (100 = growth as untreated, 0 = no growth, -100 = all killed)
# particulars: 10 µM
# Protocol: Growth inhibition of the OVCAR-4 human tumor cell line is measured as a screen for anti-cancer activity. Cells are grown in 96 well plates and exposed to the test compound for 48 hours. Compounds are tested at a single concentration, which is 10^-5 M for most compounds. The reported endpoint is percent growth (GI% or GIPRCNT), where numbers from 0 - 100% represent growth inhibition, and numbers from -100% - 0 represent cell death. For example, a value of 40 represents 60% growth inhibition. […]
Compounds without any hit were thinned out: in the full panel of roughly 83,000, 20% have a hit.
Use true when the recorded growth is no lower than 70%; use false when it is lower.

Past entries and their recorded results:
- molecule: "N#CCc1ccccc1"
  group: "true"
- molecule: "CN(CCCl)c1ccc(/C=C/C2=[N+](C)c3ccccc3C2(C)C)cc1"
  group: "false"
- molecule: "Oc1c(I)cc(I)cc1I"
  group: "true"
- molecule: "NNc1ccccc1"
  group: "true"
- molecule: "COc1ccc2c(ccc3oc([N+](=O)[O-])cc32)c1"
  group: "false"

growth >= 70% for CC(=O)Nc1c2sscc-2n(C)c1=O ?
false

growth >= 70% for CC(Cc1ccc2c(c1)OCO2)NN (stereo not drawn) ?
true

growth >= 70% for CCOP(=O)(OCC)/C(C#N)=C/c1ccc(Br)cc1 ?
true

growth >= 70% for COc1cc([N+](=O)[O-])c2ncccc2c1[N+](=O)[O-] ?
false

###

# System: M14 melanoma
# assay.name: NCI-60 one-dose screen, 48 h
# particulars: 10 µM
# Method: Growth inhibition of the M14 human tumor cell line is measured as a screen for anti-cancer activity. Cells are grown in 96 well plates and exposed to the test compound for 48 hours. Compounds are tested at a single concentration, which is 10^-5 M for most compounds. The reported endpoint is percent growth (GI% or GIPRCNT), where numbers from 0 - 100% represent growth inhibition, and numbers from -100% - 0 represent cell death. For example, a value of 40 represents 60% growth inhibition. […]
About 83,000 compounds went through this panel and 20% of them were active in at least one assay; those are over-represented in the sample as a whole. Active and inactive are the calls of the source. Rule for the calls: active = growth percent below 10; inactive = the rest.
Lab note: assign the record to one of 1 = active, -1 = inactive

Past entries and their recorded results:
- compound: "COc1ccc(/C=C(\\C)[N+](=O)[O-])cc1OC"
  group: 1
- compound: "Cc1cc(C)c(C[N+](C)(C)C)c(C)c1C"
  group: -1
- compound: "COc1cc(/C=C/[N+](=O)[O-])cc(OC)c1OC"
  group: 1
- compound: "C[C@]12CC[C@H]3[C@@H](CCC4=CC(=O)CC[C@@H]43)[C@@H]1CC[C@@H]2OC(=O)N(CCCl)N=O"
  group: -1
- compound: "O=C(CBr)Nc1ccccc1"
  group: -1
- compound: "O=C1C=Cc2ccccc2C1=O"
  group: -1

Just curious, what result did O=S(=O)(F)c1ccc(Cl)cc1 get here?
-1

Just curious, what result did Cc1ccc(NC(=O)CBr)cc1 get here?
-1

Just curious, what result did CC(Cc1ccc2c(c1)OCO2)NN (configuration not stated) get here?
-1

Just curious, what result did O=[N+]([O-])/C=C/c1ccc(Cl)cc1[N+](=O)[O-] get here?
-1

Just curious, what result did CC(C)C1(NC(=O)C2CC3c4cccc5[nH]cc(c45)CC3N(C)C2)OC2(O)C3CCCN3C(=O)C(Cc3ccccc3)N2C1=O (configuration not stated) get here?
-1

Just curious, what result did CS(=N)(=O)CCC(N)C(=O)O (configuration not stated) get here?
-1

###

# Test system: RXF 393 renal
# assay.name: NCI-60 one-dose screen, 48 h (100 = growth as untreated, 0 = no growth, -100 = all killed)
# particulars: 10 µM
About 83,000 compounds went through this panel and 20% of them were active in at least one assay; those are over-represented in the sample as a whole.
recorded.endpoint: growth (%)
Write the answer as a number in %, unit excluded.

# count of solved cases: 2
- compound: "O=C(O)c1cc(Cc2ccc(O)c(C(=O)O)c2)ccc1O (tested in a mixture with another compound)"
  units.of.measure: "%"
  growth: 39.6
- compound: "O=C1C(=O)c2ccccc2-c2ccccc21"
  units.of.measure: "%"
  growth: -93.2

Enter growth (test system RXF 393 renal) for CC(C)(C)OOC(=O)/C=C\C(=O)OOC(C)(C)C
105
